# measuredOn: T1, 15N-labeled PHear (NECAP 1 PHear domain, GST cleaved) (mouse, UniProt Q9CR95 1-133)
# T1 construct: NECAP 1, PHear domain, residues 1-133; Uniformly 15N-labelled for NMR; source: E. coli BL21, purified (GST fusion cleaved with thrombin, S75 gel filtration)
# T1 sequence (looked up): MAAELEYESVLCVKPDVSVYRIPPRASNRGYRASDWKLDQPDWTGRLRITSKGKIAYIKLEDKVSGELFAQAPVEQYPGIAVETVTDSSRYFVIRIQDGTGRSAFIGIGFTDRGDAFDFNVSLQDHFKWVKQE
# assay: NMR titration; 1H-15N HSQC of 15N-labeled PHear (0.15 mM) titrated with unlabeled peptide, 30°C, 25 mM sodium phosphate pH 7.2, 75 mM NaCl, 0.5 mM EDTA, 3 mM DTT
# statedConditions: both partners purified
Where no end group is shown, it is not given here.
measurementType: Kd
Give the number first and the unit second.

(Q) What value of Kd has been reported for the following binder? Ac-SQGDLLGDLLNLDLPPVN (peptide from the linker of β2-adaptin; the printed peptide has no G there; also called unlabeled β2-linker; source: synthetic peptide (Sheldon Biotechnology Center, McGill University), HPLC purified) [β2-linker peptide (Ac-SQGDLLGDLLNLDLPPVN)]
(A) 480 µM
